Reported PBM E-score values are given for each entry in this list.
Molecular target: Ylr278c (UniProt Q05854)
Sequence (Q05854 whole entry): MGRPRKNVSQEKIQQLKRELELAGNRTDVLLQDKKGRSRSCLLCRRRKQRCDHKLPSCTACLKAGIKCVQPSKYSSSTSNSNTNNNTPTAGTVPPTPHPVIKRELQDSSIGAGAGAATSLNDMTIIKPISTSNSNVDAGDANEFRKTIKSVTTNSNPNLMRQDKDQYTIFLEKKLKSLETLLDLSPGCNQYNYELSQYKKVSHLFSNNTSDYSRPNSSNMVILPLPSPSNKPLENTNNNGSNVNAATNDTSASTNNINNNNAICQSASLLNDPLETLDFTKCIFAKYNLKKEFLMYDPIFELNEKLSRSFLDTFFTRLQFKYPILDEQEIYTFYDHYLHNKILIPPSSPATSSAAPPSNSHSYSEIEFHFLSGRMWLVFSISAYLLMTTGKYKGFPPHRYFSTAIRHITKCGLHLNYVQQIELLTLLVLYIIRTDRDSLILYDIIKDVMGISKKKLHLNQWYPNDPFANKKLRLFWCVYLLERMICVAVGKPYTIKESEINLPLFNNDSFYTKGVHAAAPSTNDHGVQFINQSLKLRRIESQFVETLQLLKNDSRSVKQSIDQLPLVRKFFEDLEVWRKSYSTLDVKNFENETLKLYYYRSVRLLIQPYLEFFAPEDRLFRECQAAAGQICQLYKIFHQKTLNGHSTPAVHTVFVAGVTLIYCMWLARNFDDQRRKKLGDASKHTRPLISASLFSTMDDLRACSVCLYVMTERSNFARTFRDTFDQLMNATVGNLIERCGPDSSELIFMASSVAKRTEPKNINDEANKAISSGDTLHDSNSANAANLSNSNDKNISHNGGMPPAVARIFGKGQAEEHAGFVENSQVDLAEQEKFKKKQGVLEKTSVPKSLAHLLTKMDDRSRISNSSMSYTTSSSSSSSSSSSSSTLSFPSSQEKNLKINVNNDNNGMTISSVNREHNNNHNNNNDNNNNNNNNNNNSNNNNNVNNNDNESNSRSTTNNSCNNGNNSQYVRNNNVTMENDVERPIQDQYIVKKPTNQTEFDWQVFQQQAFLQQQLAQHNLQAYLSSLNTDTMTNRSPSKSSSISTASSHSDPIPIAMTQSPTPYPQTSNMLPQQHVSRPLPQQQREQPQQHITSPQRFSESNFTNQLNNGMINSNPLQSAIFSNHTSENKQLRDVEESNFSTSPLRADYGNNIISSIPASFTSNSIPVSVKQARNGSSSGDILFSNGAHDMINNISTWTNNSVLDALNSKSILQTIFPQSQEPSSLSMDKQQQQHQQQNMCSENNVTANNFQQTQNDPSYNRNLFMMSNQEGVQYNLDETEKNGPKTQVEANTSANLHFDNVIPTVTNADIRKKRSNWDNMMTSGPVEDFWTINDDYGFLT
Experiment: PBM E-score (8-mer binding enrichment) (E-score (-0.5 to 0.5)); higher = stronger / more preferred TF binding
Conditions: protein concentration: 200 nM; construct: GST-DNA-binding domain
In all, about 33,000 sequences were measured (“E-score (-0.5 to 0.5)”: median about -0.054, highest 2% from about 0.39 on). Shown is part of a subset that was picked to be rich in the highest values.
quantityMeasured: PBM E-score

AACTTAGG    -0.156
CCCTTTAA    -0.0852
CGTCGTTC    0.137
GCCGGAGA    0.459
GACAAGCC    -0.0446
AAGTTCCT    -0.0671
ACGTTCCG    0.289
GATAGTCA    -0.0752
ATGTTCCA    -0.162
CTCCCGGA    0.398
GCCGGAGC    0.452
TGTCCGAA    0.407
GAGGATAC    -0.125
GCCAGAGA    -0.194
GGTCCGAC    0.39
GTGGCAAC    -0.0372
CGTATCCC    0.048
ATCCCGGC    0.391
TCCAGAGA    -0.212
ATCGCTTG    -0.321
AACTTCCA    0.0686
GCAGGAGC    -0.194
CCGTTCCG    0.402
CTCCCGGC    0.356
AAGTTCCG    0.42
CTCCCCGC    0.288
GCCGGTGA    0.298
CAGTTCCG    0.348
CCCGGAGC    0.452
AACTGCCA    -0.249
GGTCCAAA    0.0394
CCCGGACC    0.376
CCGGGAGC    0.228
AGTGGGAT    -0.00431
ATCCCCGC    0.393
AGGCGTAT    -0.308

----------
Biological target: Ylr278c (UniProt Q05854)
Experiment: PBM E-score (8-mer binding enrichment) (E-score (-0.5 to 0.5)); higher = stronger / more preferred TF binding
Conditions: protein concentration: 200 nM; construct: GST-DNA-binding domain
The full ranking holds about 33,000 sequences; the median of “E-score (-0.5 to 0.5)” is about -0.054, and the highest 2% start at about 0.39. For the sample, the highest values were picked, then their nearest neighbours and some sequences at random.
quantityMeasured: PBM E-score

GATCCGTA    0.158
AAATGCCC    -0.0631
ACGTCCGA    0.346
AGTCCGGG    0.44
GGGATATA    0.151
CCCCTAAC    -0.141
AATCCGGT    0.442
TAGTCCGA    0.415
CAACAAAG    -0.189
AGTCCGCC    0.424
CCAGACGA    -0.149
AAACCCGC    0.287

----------
Target: Ylr278c (UniProt Q05854)
Test: PBM E-score (8-mer binding enrichment) (E-score (-0.5 to 0.5)); higher = stronger / more preferred TF binding
Details: protein concentration: 200 nM; construct: GST-DNA-binding domain
In all, about 33,000 sequences were measured (“E-score (-0.5 to 0.5)”: median about -0.054, highest 2% from about 0.39 on). This is one part of a sample in which the highest values are shown more often than they occur.
Class Yes: PBM E-score at least -0.09. Class No: PBM E-score below -0.09.

CACTCCTC    Yes
AACTCCCG    Yes
GCCAAACC    Yes
AGTTGCGC    Yes
ATTGAACC    Yes
CGAAAGTA    Yes
AATTCCGG    Yes
ATTCCAAC    No
AACGGGCA    No
AACCTAGG    No
AATTCCGA    Yes
ATCTTGAC    No
ATGCGATA    Yes

# credit: the supplement of paper PMC3334620
